- Tested on: Escherichia coli
- ASSAY COMMENT: Antibacterial activity against Escherichia coli MTCC 739 by serial dilution method
- Format: functional
- CONDITIONS USED: Escherichia coli, MTCC 739; read-out: MIC
QUANTITY NAME: MIC (µg/mL)
Form entry: value (µg/mL) — number only.

[
  {
    "COMPOUND": "COc1ccc(C(=O)OCC(C)C)cc1OC",
    "TEST RESULT": 16
  },
  {
    "COMPOUND": "COc1ccccc1NC(=O)c1ccc(OC)c(OC)c1",
    "TEST RESULT": 17
  }
]

Let us move to another entry and its MIC.
Exercise: What value of MIC has been reported for the following compound? "COc1ccc(C(=O)Nc2cccc([N+](=O)[O-])c2)cc1OC"
Solution: 13
